The measured values listed here are drawn from patent US20230382924A1.

system_tested: CFTR (Homo sapiens)
Sequence (P13569 with tags, fused parts or gaps DEL508-508): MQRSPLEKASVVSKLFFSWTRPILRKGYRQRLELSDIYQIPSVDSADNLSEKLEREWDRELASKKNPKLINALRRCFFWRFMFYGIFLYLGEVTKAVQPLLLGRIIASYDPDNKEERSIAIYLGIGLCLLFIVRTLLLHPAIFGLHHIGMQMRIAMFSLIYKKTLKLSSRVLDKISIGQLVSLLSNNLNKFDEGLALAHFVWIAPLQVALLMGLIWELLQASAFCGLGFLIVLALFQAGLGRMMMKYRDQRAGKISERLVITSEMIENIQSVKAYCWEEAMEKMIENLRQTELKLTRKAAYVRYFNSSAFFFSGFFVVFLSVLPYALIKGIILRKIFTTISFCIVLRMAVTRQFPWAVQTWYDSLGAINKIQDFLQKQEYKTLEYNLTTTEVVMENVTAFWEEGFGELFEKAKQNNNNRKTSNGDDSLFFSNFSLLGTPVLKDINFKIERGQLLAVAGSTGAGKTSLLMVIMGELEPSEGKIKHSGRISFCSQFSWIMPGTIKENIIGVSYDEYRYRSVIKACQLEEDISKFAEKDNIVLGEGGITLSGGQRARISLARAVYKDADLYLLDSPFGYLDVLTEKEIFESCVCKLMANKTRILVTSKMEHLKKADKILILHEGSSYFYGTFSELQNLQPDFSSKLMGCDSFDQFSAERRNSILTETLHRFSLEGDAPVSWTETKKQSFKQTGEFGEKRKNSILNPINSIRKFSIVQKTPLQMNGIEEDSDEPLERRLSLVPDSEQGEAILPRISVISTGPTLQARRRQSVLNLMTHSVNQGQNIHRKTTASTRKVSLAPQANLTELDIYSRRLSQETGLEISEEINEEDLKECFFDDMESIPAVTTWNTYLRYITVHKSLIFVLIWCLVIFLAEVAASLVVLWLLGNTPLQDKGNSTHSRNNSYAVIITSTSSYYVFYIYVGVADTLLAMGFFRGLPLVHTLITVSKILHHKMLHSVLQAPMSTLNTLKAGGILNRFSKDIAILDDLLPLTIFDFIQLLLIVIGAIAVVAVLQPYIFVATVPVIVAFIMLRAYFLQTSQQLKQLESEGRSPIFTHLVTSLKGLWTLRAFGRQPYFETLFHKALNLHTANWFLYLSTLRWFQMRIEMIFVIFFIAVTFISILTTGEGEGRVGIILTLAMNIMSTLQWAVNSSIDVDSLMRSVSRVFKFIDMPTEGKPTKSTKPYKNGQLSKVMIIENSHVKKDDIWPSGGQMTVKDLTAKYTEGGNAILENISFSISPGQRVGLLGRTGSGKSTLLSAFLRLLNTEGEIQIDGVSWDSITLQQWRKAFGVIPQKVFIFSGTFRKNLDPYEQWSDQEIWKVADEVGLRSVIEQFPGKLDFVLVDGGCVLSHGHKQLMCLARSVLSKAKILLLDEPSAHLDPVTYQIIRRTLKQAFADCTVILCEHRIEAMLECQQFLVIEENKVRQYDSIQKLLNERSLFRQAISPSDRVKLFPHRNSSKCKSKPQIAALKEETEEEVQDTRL
test_protocol: Membrane Potential Dye, Enteroid Assay A
Type: cell-based
reported_conditions: Enteroid Assay A
Method: Base medium (ADF+++) consisted of Advanced DMEM/Ham's F12, 2 mM Glutamax, 10 mM HEPES, […] penicillin/streptomycin. Bath 1 Buffer consisted of 1 mM MgCl2, 160 mM NaCl, 4.5 mM KCl, 10 mM HEPES, 10 mM Glucose, 2 mM CaCl2). […] Briefly, cells were washed 5 times in Bath 1 Buffer. […] Chloride transport was initiated by addition of Chloride Free Dye Stimulation Solution and the fluorescence signal was read for 15 min. […]
recorded_endpoint: Ent. A Max Activity

compound	Ent. A Max Activity
Cc1cccc(C)c1-c1cc2nc(n1)NS(=O)(=O)c1cccc(c1)C(=O)NCc1cccc(c1)O2 [Compound 197]	++ (++ is 30-60%)
CC(C)C[C@@H]1COc2cc(-c3ccccc3CC(C)(C)C)nc(n2)NS(=O)(=O)c2cccc(c2)C(=O)N1 [Compound 332]	++ (++ is 30-60%)
CC(C)C[C@@H]1COc2cc(-c3ccccc3C3CC3)nc(n2)NS(=O)(=O)c2cccc(c2)C(=O)N1 [Compound 105]	+++ (+++ is >600%)
COC(=O)c1cc(CN2CCC3(CC2)CNC(=O)c2cccc(c2)S(=O)(=O)Nc2nc(cc(-c4c(C)cccc4C)n2)OC3)ccc1F [Compound 437]	++ (++ is 30-60%)
CCC1CC=C(c2cc3nc(n2)NS(=O)(=O)c2cccc(c2)C(=O)N[C@H](CC(C)C)CO3)CC1 (stereo partly shown) [Compound 322]	++ (++ is 30-60%)
CC(C)C[C@@H]1COc2cc(-c3ccnn3C(C)C)nc(n2)NS(=O)(=O)c2cccc(c2)C(=O)N1 [Compound 341]	++ (++ is 30-60%)

Please find the next compound below.
Hi! What's the reported Ent. A Max Activity for Cc1cccc(C)c1-c1cc2nc(n1)NS(=O)(=O)c1cccc(c1)C(=O)N[C@H](CC1CCCCC1)CO2 [Compound 365] on CFTR (Homo sapiens)?
+++ (+++ is >600%)
